Origin of values: paper PMC5353646

tgt: T1, non-farnesylated human PEX19 C-terminal domain (residues 161-299) (human, UniProt P40855 161-299)
T1 chain: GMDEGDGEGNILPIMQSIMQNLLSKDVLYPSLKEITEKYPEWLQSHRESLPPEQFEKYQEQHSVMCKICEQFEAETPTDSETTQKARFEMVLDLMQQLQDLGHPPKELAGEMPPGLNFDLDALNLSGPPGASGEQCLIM
assay_comment: FP
No end group written: not given here. *: point of attachment. FITC = O=C1OC2(c3ccc(O)cc3Oc3cc(O)ccc32)c2ccc(NC(=S)*)cc21
value_type: pKd
On this scale, pKd is minus log10 of a concentration expressed in M (mol/L).

Please report the recorded pKd for {FITC}-AAKAGMNRVFLQRLL [FITC-labelled ALDP peptide (62-AAKAGMNRVFLQRLL-76)] .
3.58
